MCC values for the compounds below.
assay: Minimum toxic concentration in HEL cells; assay type: toxicity, cell-based; settings: human, read-out: MTC
EXPERIMENTAL_ENDPOINT: MCC

> print(dat)
                                   compound  reported.measurement
1     Cc1c(O)c(=O)ccn1[C@@H]1CC[C@@H](CO)O1              > 900 µM
2             Cc1c(O)c(=O)ccn1CCOCP(=O)(O)O              > 200 µM
3  Cc1c(OCc2ccccc2)c(=O)ccn1[C@H]1CC[C@@H](CO)O1              > 900 µM
4  Cc1c(O)c(=O)ccn1[C@@H]1CS[C@@H](CO)O1 (racemic)              > 400 µM
5  Cc1c(O)c(=O)ccn1[C@H]1CS[C@@H](CO)O1 (racemic)              > 400 µM
6  Nc1nc2c(ncn2COCCO)c(=O)[nH]1 [ACYCLOVIR]             > 1700 µM
7  Nc1ccn(C[C@@H](CO)OCP(=O)(O)O)c(=O)n1 [CIDOFOVIR]              > 350 µM
8      Cc1c(O)c(=O)ccn1[C@H]1CC[C@@H](CO)O1              > 900 µM
9       Cc1c(O)c(=O)ccn1[C@H]1CC[C@H](CO)O1              > 900 µM
